We begin with IC50 values for MAPK1(ERK2) enzyme (Homo sapiens, UniProt P28482), as collected from the published literature.

Form: compound = `Cc1cc(C(F)(F)c2nnc3n2[C@@H](CF)Cn2cc(-c4cc(Nc5ccnn5C)ncc4C)cc2-3)on1` ; IC50 = ≤ 5 nM

Kindly note the recorded IC50 for `C[C@H]1Cn2cc(-c3nc(Nc4ccnn4C)ncc3Cl)nc2C(=O)N1Cc1cccc(C(F)F)n1` , which is 0.5 nM

IC50 measured on `Cn1nccc1Nc1nccc(-c2cc3c4nnc(COc5ccccc5F)n4ccn3c2)n1` = ≤ 5 nM

Per the record, `Cn1nccc1Nc1cc(-c2cc3n(c2)CC2(CC2)Cn2c(CCC(F)(F)F)nnc2-3)c(Cl)cn1` has IC50 of ≤ 5 nM

Consider CCC(O)[C@H](CC)Nc1nc(NCc2cccnc2)c2ncn(C(C)C)c2n1 (mixture of isomers) . Its measured IC50 is 17000 nM

The reported value for `CCNC(=O)Nc1ccc2ncc(Nc3cccc(OC(C)C)c3)nc2n1` in terms of IC50 is > 31600 nM

Notebook: `Cn1nccc1Nc1cc(-c2cc3n(c2)CCCn2c-3nnc2C2(C#N)CCC2)c(Cl)cn1` , IC50 read as ≤ 5 nM

Field IC50 (entry CC[C@H](Nc1nc(NCc2cccnc2)c2ncn(C(C)C)c2n1)C(O)C(C)(C)C (mixture of isomers) ) reads 23000 nM

Looking up `Cc1cnc(Nc2ccnn2C)cc1-c1cc2n(c1)CC1(COC1)Cn1c-2nnc1C1(C(F)(F)F)CCC1` , I found its IC50 recorded as ≤ 5 nM

Notebook: `Cn1nccc1Nc1ncnc(-c2cc3n(c2)C[C@H](CF)n2c-3nnc2C(F)(F)c2ccccc2Cl)n1` , IC50 read as ≤ 5 nM

response.value for `Cn1nccc1Nc1cc(-c2cc3n(c2)C[C@H](CF)n2c-3nnc2C(F)(F)c2ccccn2)c(Cl)cn1` (field: IC50) = ≤ 5 nM

Entry `Cc1cc(-c2n[nH]c3cc4c(cc23)CN([C@@H]2CCCN(Cc3ccsc3)C2)C(=O)N4)ccn1` — recorded IC50 = < 500 nM

Data point: `O=C(NCCCO)Nc1ccc2ncc(-c3ccccc3)nc2n1` ; IC50 = 711 nM

So for `Cc1cnc(Nc2ccnn2C)nc1-c1cc2n(c1)C[C@H](CF)n1c-2nnc1C(F)(F)c1ccccc1Cl` , the logged IC50 turned out to be 5 to 10 nM

IC50 for `C[C@@H](NC(=O)c1nc2cc3c(-c4ccncc4)n[nH]c3cc2[nH]1)c1cccc(C(F)(F)F)c1` is 0.73 nM

Reported IC50 ( `Cc1cnc(Nc2ccnn2C)cc1-c1cc2n(c1)C[C@H](CF)n1c-2nnc1C(F)(F)n1cc(Cl)cn1` ) = ≤ 5 nM

Documented IC50 of `Cc1cnc(NC2CCOCC2)nc1-c1cc2n(c1)CCCn1c-2nnc1C1(C(F)(F)F)CCC1` : ≤ 5 nM
